B1: LINE1-mini (parent)
chain: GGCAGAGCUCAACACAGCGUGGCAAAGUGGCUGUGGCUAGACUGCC

Variants of: B1
Assay: self-cleavage, relative activity (ratio to wild type); higher = more cleavage; in vitro, sequencing; the parent is a self-cleaving ribozyme
Measure name: self-cleavage

Past entries and their recorded results:
C15G C18G | 0.05
C23U C45U | 1.09
A26U C45G | 0.64
G5A A41G | 0.04
U9A C46G | 0.12
G27C A39C | 0.11

According to the records, this variant U20G G29A displays self-cleavage of 1.02

According to the records, this variant U9A G36U displays self-cleavage of 0.1

According to the records, this variant C3U C23A displays self-cleavage of 0.55

According to the records, this variant A25G G40U displays self-cleavage of 0.07

According to the records, this variant A41C C46A displays self-cleavage of 0.05

According to the records, this variant A12U C45A displays self-cleavage of 0.38

According to the records, this variant G2C U9A displays self-cleavage of 0.16

According to the records, this variant G1A C31U displays self-cleavage of 0.32

According to the records, this variant U28A G40A displays self-cleavage of 0.1

According to the records, this variant C13G U32A displays self-cleavage of 0.09

According to the records, this variant C8U G22C displays self-cleavage of 0.15
